# test-summary: Plasma drug levels and pharmacokinetic parameters in T. evansi infected goats (HPLC/MS-MS)
# Format: in vivo, goat
# condition-parameters: Canarian, im; goat plasma, four applications of 5 mg/kg i.m., average plasma levels; read-out: AUC
# Method: In addition, blood samples were taken shortly before each compound injection was applied, to determine the trough levels. All samples were centrifuged at 3000 g for ten minutes. […] Curves were then prepared and analysed in duplicate, at both the beginning and the end of the analytical run. Concentrations of diminazene, DB 75, DB 867 and DB 1192 were determined by Liquid Chromatography/Triple Quadrupole Mass Spectrometry (HPLC/MS-MS). […]
experimental-readout: AUC (µg·h/mL)

N=C(N)c1ccc(/N=N/Nc2ccc(C(=N)N)cc2)cc1 [Diminazene, Diminazene aceturate, reference compound] :: 194

====

# test-summary: Plasma drug levels and pharmacokinetic parameters in T. evansi infected goats (HPLC/MS-MS)
# Format: in vivo, goat
# condition-parameters: Canarian, im; goat plasma, four applications of 5 mg/kg i.m., average plasma levels; read-out: Cmax
experimental-readout: Cmax

N=C(N)c1ccc(/N=N/Nc2ccc(C(=N)N)cc2)cc1 [Diminazene, Diminazene aceturate, reference compound] :: ≥ 8640 ng/mL

====

# test-summary: Plasma drug levels and pharmacokinetic parameters in T. evansi infected goats (HPLC/MS-MS)
# Assay type: in vivo, goat
# condition-parameters: Canarian, im; goat plasma, four applications of 5 mg/kg i.m., average plasma levels
experimental-readout: half-life (h)

N=C(N)c1ccc(/N=N/Nc2ccc(C(=N)N)cc2)cc1 [Diminazene, Diminazene aceturate, reference compound] :: 59.1

====

# test-summary: Plasma drug levels and pharmacokinetic parameters in T. evansi infected goats (HPLC/MS-MS)
# Type: in vivo, goat
# condition-parameters: Canarian, im; goat plasma, four applications of 5 mg/kg i.m., average plasma levels; read-out: MRT
experimental-readout: MRT (h)

N=C(N)c1ccc(/N=N/Nc2ccc(C(=N)N)cc2)cc1 [Diminazene, Diminazene aceturate, reference compound] :: 70.7
